SYSTEM: UniProt:Q13639
Sequence (Q13639 whole entry): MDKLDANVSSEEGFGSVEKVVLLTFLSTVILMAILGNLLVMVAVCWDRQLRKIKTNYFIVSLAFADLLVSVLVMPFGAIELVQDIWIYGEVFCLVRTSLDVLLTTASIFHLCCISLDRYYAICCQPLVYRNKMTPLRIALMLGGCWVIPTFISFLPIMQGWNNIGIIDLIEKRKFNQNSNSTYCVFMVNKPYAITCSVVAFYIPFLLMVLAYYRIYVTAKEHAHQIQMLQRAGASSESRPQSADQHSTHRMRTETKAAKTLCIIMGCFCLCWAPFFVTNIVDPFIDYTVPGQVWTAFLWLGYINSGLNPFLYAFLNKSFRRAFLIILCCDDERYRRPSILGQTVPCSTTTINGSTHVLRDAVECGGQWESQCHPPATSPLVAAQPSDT
MEASUREMENT DESCRIPTION: Agonist activity at human 5HT4C receptor expressed in HEK293 cells assessed as accumulation of cAMP by flash plate adenylyl cyclase activation assay
EC50 for assorted molecules
PROPERTY LABEL: EC50

>>> print(df.to_string())
                           structure_smiles  reported
0      COc1cc(N)c(Cl)cc1C(=O)NC1CCN(CCO)CC1   63.1 nM
1    CC(C)n1c(=O)n(C(=O)NC2CCNCC2)c2ccccc21    316 nM
2  CC(C)n1c(=O)c(C(=O)N[C@H]2C[C@H]3CC[C@@H](C2)N3CCCCCS(=O)(=O)O)cc2ccccc21   12.6 nM
3  CC(C)n1c(=O)c(C(=O)N[C@H]2C[C@H]3CC[C@@H](C2)N3CCCN2CCN(S(C)(=O)=O)CC2)cc2ccccc21   1.58 nM
4  CCN1[C@@H]2CC[C@H]1C[C@@H](NC(=O)c1cc3ccccc3n(C(C)C)c1=O)C2   31.6 nM
